Data origin, for the record: PubChem BioAssay

Experiment: splicing luciferase reporter signal modulators, primary screen, spliceosome inhibition project, cell-based, HEK293, splice +/- reporter (AID 1101);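 further: HEK293 cells carrying a splicing-competent luciferase reporter gene; test concentration not given here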
Conditions: luminescence, 24 h, higher = more signal, called active from +8 up or from −8 down
The source made the active and inactive calls.
z-score listing for selected molecules.

Molecule	z-score
CN1C(=O)C2C=CC(C(O)c3ccc(I)cc3)N(N(c3ccccc3)c3ccccc3)C2C1=O (centres undefined)	1.19 (inactive)
CC(C)c1ccc(NN2C(C(O)C(C)c3ccccc3)C=CC3C(=O)N(c4ccccc4)C(=O)C32)cc1 (centres undefined)	1.77 (inactive)
C=C(C)C1CN([C@H](CO)c2ccccc2)C(=O)/C1=C\c1ccccc1 (some centres undefined)	-0.921 (inactive)
C=CCNC(=O)[C@H]1[C@@H]2C(=O)O[C@@H](c3ccccc3)[C@@H](c3ccccc3)N2[C@@H](c2ccc(OCCO)cc2)[C@]12C(=O)N(C(=O)OCCOC)c1ccc(C#CCNC(N)=O)cc12	0.0908 (inactive)
